Just for reference, the supplement of paper PMC4466140 is where these values come from.

biological target: CaSho1; assay: SPOT peptide array binding signal intensity (averaged, normalized) (arbitrary units (background-subtracted, floor 0; scale differs between SH3 domains)); higher = stronger binding of the SH3 domain to the peptide
readout-label: SPOT peptide array binding signal intensity
Could you keep your reply to the number by itself?

A selection of reference data follows.
binder: TPEIPPPLPPKIMVH
observed-value: 124

binder: KRKRFNLLLPKPYLT
observed-value: 592

binder: GAGERPRLVPRPINV
observed-value: 21

Tell me the measured SPOT peptide array binding signal intensity of `IAPIPMPKPNPTHIS` , please. 305

Tell me the measured SPOT peptide array binding signal intensity of `ERPKRRAPPPVPKKP` , please. 6

Tell me the measured SPOT peptide array binding signal intensity of `KLSRGRYGLPLSSRP` , please. 59.5
